- TARGET UNDER TEST: full length human TLR3 (human)
- EXPERIMENT NOTES: cell-based or functional assay
OUTCOME MEASURE: % inhibition of poly(I:C)-induced NF-κB luciferase reporter

Ask | Give recorded % inhibition of poly(I:C)-induced NF-κB luciferase reporter. mAb 19 (antibody, V domains shown) VH: QVELVQSGAEVKKPGESLKISCKGSGYSFTNYWVGWVRQMPGKGLEWMGFIDPSDSYTNYAPSFQGQVTISADKSISTAYLQWSSLKASDTAMYYCARELYQGYMDTFDSWGQGTLVTVSS VL: DIQMTQSPSSLSASVGDRVTITCRASQSIGLYLAWYQQKPGKAPKLLIYAASSLQSGVPSRFSGSGSGTDFTLTISSLQPEDFATYYCQQYGSVSITFGQGTKVEIK
Reply | > 50%

Ask | Give recorded % inhibition of poly(I:C)-induced NF-κB luciferase reporter. mAb 10 (antibody, V domains shown) VH: QVELQQSGPGLVKPSQTLSLTCAISGDSVSSNSAAWGWIRQSPGRGLEWLGIIQKRSKWYNNYAVSVKSRITINPDTSKNQFSLQLNSVTPEDTAVYYCARYSYPFYSIDYWGQGTLVTVSS VL: DIELTQPPSVSVAPGQTARISCSGDNIGSYYVHWYQQKPGQAPVLVIYEDSERPSGIPERFSGSNSGNTATLTISGTQAEDEADYYCQSYDTPVYSVFGGGTKLTVL
Reply | > 50%

Ask | Give recorded % inhibition of poly(I:C)-induced NF-κB luciferase reporter. mAb 12 (antibody, V domains shown) V domain 1: QVELQQSGPGLVKPSQTLSLTCAISGDSVSSNSAAWGWIRQSPGRGLEWLGIIQKRSKWYNNYAVSVKSRITINPDTSKNQFSLQLNSVTPEDTAVYYCARYSYPFYSIDYWGQGTLVTVSS V domain 2: DIELQQSGPGLVKPSQTLSLTCAISGDSVSSNSAAWGWIRQSPGRGLEWLGIIQKRSKWYNNYAVSVKSRITINPDTSKNQFSLQLNSVTPEDTAVYYCARYSYPFYSIDYWGQGTLVTVSS
Reply | > 50%
